The reported measurements were obtained from ChEMBL document CHEMBL1145043.

Target: Cyclin-dependent kinase 4/cyclin D1 (Homo sapiens, UniProt P11802)
Sequence (P11802 whole entry): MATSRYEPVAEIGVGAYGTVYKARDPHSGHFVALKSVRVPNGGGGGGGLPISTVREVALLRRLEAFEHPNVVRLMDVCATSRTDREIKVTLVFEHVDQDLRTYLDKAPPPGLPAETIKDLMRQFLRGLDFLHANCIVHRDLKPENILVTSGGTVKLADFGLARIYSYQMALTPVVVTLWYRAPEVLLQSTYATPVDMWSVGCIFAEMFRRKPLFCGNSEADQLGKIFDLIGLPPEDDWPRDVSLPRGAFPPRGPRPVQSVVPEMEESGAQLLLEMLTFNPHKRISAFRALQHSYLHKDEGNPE
Sequence (P24385 whole entry, further chain): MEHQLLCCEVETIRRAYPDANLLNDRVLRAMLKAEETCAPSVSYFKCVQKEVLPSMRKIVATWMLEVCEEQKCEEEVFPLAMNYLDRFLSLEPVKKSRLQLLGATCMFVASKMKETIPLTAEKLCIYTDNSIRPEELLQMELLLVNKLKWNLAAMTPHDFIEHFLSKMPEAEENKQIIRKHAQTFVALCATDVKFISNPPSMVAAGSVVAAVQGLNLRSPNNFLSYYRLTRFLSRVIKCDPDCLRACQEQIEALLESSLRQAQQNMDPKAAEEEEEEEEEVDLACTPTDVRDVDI
Assay: Inhibitory activity against Cyclin-dependent kinase 4-cyclin D1 using Rb21 as substrate
Observable: IC50 (nM)

>  <Item smiles>
COc1ccc2c(c1)[nH]c1c3[nH]c4ccccc4c3c3c(c21)C(=O)NC3=O

>  <Tested on>
Cyclin-dependent kinase 4/cyclin D1 (Homo sapiens, UniProt P11802)

>  <Observable>
IC50

>  <Test value>
134

$$$$
>  <Item smiles>
Cn1c2ccccc2c2c3c(c4c5ccc(Br)cc5[nH]c4c21)C(=O)NC3=O

>  <Tested on>
Cyclin-dependent kinase 4/cyclin D1 (Homo sapiens, UniProt P11802)

>  <Observable>
IC50

>  <Test value>
74

$$$$
>  <Item smiles>
O=C1NC(=O)c2c1c1c3ccccc3[nH]c1c1[nH]c3ccccc3c21

>  <Tested on>
Cyclin-dependent kinase 4/cyclin D1 (Homo sapiens, UniProt P11802)

>  <Observable>
IC50

>  <Test value>
160

$$$$
>  <Item smiles>
O=C1NC(=O)c2c1c1c3ccccc3[nH]c1c1[nH]c3cc(Cl)ccc3c21

>  <Tested on>
Cyclin-dependent kinase 4/cyclin D1 (Homo sapiens, UniProt P11802)

>  <Observable>
IC50

>  <Test value>
72

$$$$
>  <Item smiles>
O=C1NC(=O)c2c1c1c3ccccc3[nH]c1c1[nH]c3cccc(Br)c3c21

>  <Tested on>
Cyclin-dependent kinase 4/cyclin D1 (Homo sapiens, UniProt P11802)

>  <Observable>
IC50

>  <Test value>
80

$$$$
>  <Item smiles>
O=C1NC(=O)c2c1c1c3ccccc3[nH]c1c1[nH]c3cc(F)ccc3c21

>  <Tested on>
Cyclin-dependent kinase 4/cyclin D1 (Homo sapiens, UniProt P11802)

>  <Observable>
IC50

>  <Test value>
103

$$$$
>  <Item smiles>
O=C1NC(=O)c2c1c1c3ccccc3[nH]c1c1[nH]c3cc(C(F)(F)F)ccc3c21

>  <Tested on>
Cyclin-dependent kinase 4/cyclin D1 (Homo sapiens, UniProt P11802)

>  <Observable>
IC50

>  <Test value>
1140

$$$$
